# PROTOCOL NOTES: Maximal solubility in nonpyrogenic fluid suitable for parenteral infusion
# Assay type: physicochemical
# TEST CONDITIONS: adenosine and inosine combined in a nonpyrogenic fluid suitable for parenteral infusion

STRUCTURE SMILES	solubility (mg/mL)
OC[C@H]1O[C@@H](n2cnc3c(O)ncnc32)[C@H](O)[C@@H]1O	20
